Test system: FXR:RXRa (NR concentration 270 nM, RXRa partner concentration 90 nM)
protocolDetails: PBM binding z-score (relative to random genomic background probes); higher = stronger binding; sequences stand for … in GC…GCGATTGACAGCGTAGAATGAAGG
Grouping rule (PBM binding z-score): range 1 = under 0.4, range 2 = from 0.4 up to 4, range 3 = 4 and over

ACTCAAAGTTCAGGACGAGGTAACGTAAAGCACG : range 3

Sort into band: CGTCCAACGTCAGAGAGGTCAGTGAATGCCGAGT
range 2

Let us now turn to TCTTGTAGATCAACAGGAGGTTCAGAAAGATCGA
range 1

Let us now turn to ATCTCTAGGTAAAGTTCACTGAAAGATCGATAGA
range 2

Let us now turn to CGAACTAAGTCAAGGACAGTGAATCTCCGCACGC
range 1

Let us now turn to CGTCCAAGGTCATAGAAGGTCAGTGAAGACAGAT
range 3

Let us now turn to ACAGACAGGTGAGTGAAGGTAACTTAGCTGGACG
range 1

Let us now turn to AGTCAAAGTTCAGGACGAAGTAACGTAAAGCACG
range 2

Let us now turn to TAGCCTAGGTCATTCAGGAGCCAGTATAGAAAGC
range 3

Let us now turn to AGAATGAGGTTACCAAAGATCAGGAAAACGCTTG
range 2

Let us now turn to TATACAGGGTCATAGGCCAGAGTACGAATGTCGA
range 3
